# System: A549/ATCC NSCLC
# Experiment summary: NCI-60 one-dose screen, 48 h (100 = growth as untreated, 0 = no growth, -100 = all killed)
# Conditions used: 10 µM unless noted
The panel holds about 83,000 compounds, 20% with a hit somewhere; the sample as a whole holds those more often.
growth listing for selected compounds.
Entry rule: numbers only, all in %.

1. C/C(=N/O)c1ccc(NC(=O)CSc2nnc(-c3ccc4nc(-c5ccc(Cl)cc5)[nH]c4c3)o2)cc1    31.8
2. COc1nc(N)ncc1-c1ccc2ncnc(N3CCc4cc(F)c(Cl)cc43)c2c1    3.34

Request: Give the reported growth for this compound. CC(C)(C)OC(=O)N1C/C(=C\c2ccc(F)cc2)C(=O)/C(=C/c2ccc(F)cc2)C1
Response: 35.3

----------
growth listing for selected compounds.
# System: OVCAR-5 ovarian
# Experiment summary: NCI-60 one-dose screen, 48 h (100 = growth as untreated, 0 = no growth, -100 = all killed)
# Conditions used: 10 µM unless noted
This is part of a sample that, as a whole, favours compounds with a hit. Of some 83,000 tested, about 20% had one in any assay. Calls of active or inactive are those of the source. Rule for the calls: active = growth percent below 10; inactive = the rest.

1. CCCCCCCCc1ccc(C(=O)Nc2ccc(C)c(OP(=O)(O)O)c2)cc1    120% (inactive)
2. C=CC(=O)N1CCN(c2ccc3nc4c(nc3c2C(F)(F)F)C(=O)c2ncccc2C4=O)CC1    2.97% (active)
3. COc1ccc(-c2cc(C(=O)N=Nc3c(O)[nH]c4ccc(Cl)cc34)c3ccccc3n2)cc1OC    104% (inactive)
4. O=C(Nc1ccc(-c2ccc3c(c2)NC(=O)/C3=C\c2ccc[nH]2)cc1)Nc1ccc(Cl)c(C(F)(F)F)c1    51.2% (inactive)

Now consider a different compound.
Request: Give the reported growth for this compound. COc1ccc2[nH]c(O)c(N=Nc3nc(-c4ccc(C#N)cc4)cs3)c2c1
Response: 94.1% (inactive)

----------
# Test system: NCI-H522 lung
# Experiment summary: NCI-60 one-dose screen, 48 h
# Conditions used: 10 µM unless noted
The panel holds about 83,000 compounds, 20% with a hit somewhere; the sample as a whole holds those more often. Calls of active or inactive are those of the source. The calls were made as follows: active = growth percent below 10; inactive = the rest.
Please reply with one of these outcomes: active, inactive

Example results:
1) O=C(CSc1nc2sc3c(c2c(=O)n1-c1ccc(Cl)cc1)CCCC3)N/N=C/C=C/c1ccccc1    active
2) CN1CCN(C(=O)CCN(C(=O)Oc2cc3c(c4ccccc24)[C@H](CCl)CN3C(=O)c2cc3cc(OCCCN4CCC4)ccc3[nH]2)[C@H]2CCSSC2)CC1    active

Request: # lookup: test call for COc1ccc2[nH]c(O)c(N=Nc3nc(-c4ccc(C#N)cc4)cs3)c2c1
Response: inactive

Request: # lookup: test call for Cc1ccc(Cl)cc1NC(=O)N/C(N)=N/c1nc2ccccc2s1
Response: active

Request: # lookup: test call for O=C(c1ccc(O)cc1)C1[C@H](c2ccc(Cl)cc2)[C@@H](c2ccccc2)NC12C(=O)Nc1ccccc12 (some centres undefined)
Response: active

Request: # lookup: test call for COC(=O)c1ccc(-c2c(-c3ccccc3)c(F)c3oc(C(=O)OC)c(N)c3c2-c2ccccc2)cc1
Response: inactive

Request: # lookup: test call for Nc1nn2c(-c3cc4cc(Br)ccc4oc3=O)ccnc2c1N=Nc1ccc(Br)cc1
Response: inactive

Request: # lookup: test call for COc1ccc([C@H]2C(C(=O)c3ccc(Cl)cc3)C3(N[C@@H]2c2ccccc2)C(=O)Nc2ccccc23)cc1 (some centres undefined)
Response: inactive

Request: # lookup: test call for CCOc1ccccc1[C@H]1C(C(=O)c2ccc(Cl)cc2)C2(N[C@@H]1c1ccccc1)C(=O)Nc1ccc(Br)cc12 (some centres undefined)
Response: active

----------
# Test system: NCI-H23 lung
# Experiment summary: NCI-60 one-dose screen, 48 h (100 = growth as untreated, 0 = no growth, -100 = all killed)
# Conditions used: 10 µM unless noted
This is part of a sample that, as a whole, favours compounds with a hit. Of some 83,000 tested, about 20% had one in any assay.
growth listing for selected compounds.
Entry rule: numbers only, all in %.

Please review the following examples before continuing.
1) COc1ccc(-c2cc(C(=O)N=Nc3c(O)[nH]c4ccc(Cl)cc34)c3ccccc3n2)cc1    14.3
2) CC1=C(C(=O)OCc2ccccc2)C(c2ccc(N(C)C)cc2)n2c(nc3ccccc32)N1 (centres undefined)    90.8
3) O=C1/C(=C/C=C/c2ccco2)SC(=S)N1CC(=S)C1C=CS(=O)(=O)C1 (centres undefined)    83.1

Request: Give the reported growth for this compound. COc1cc(CNC(=O)C[C@H](C)CCC=C(C)C)ccc1OCc1cn(-c2ccc(Br)cc2)nn1
Response: 60.1

Request: Give the reported growth for this compound. O=C(N=Nc1c(O)[nH]c2ccc(Cl)cc12)c1ccc2nc(-c3ccc(Cl)cc3)[nH]c2c1
Response: -71.5

Request: Give the reported growth for this compound. COC(=O)c1cc(C(C)=O)n2c3ccccc3c3ccccc3c12
Response: 78.1

Request: Give the reported growth for this compound. COc1cc(C=O)ccc1OC(=O)c1cc(-c2ccc(C)cc2)n(-c2ccc(S(C)(=O)=O)cc2)n1
Response: 101

Request: Give the reported growth for this compound. COc1cc(C2CC(c3ccc(S(=O)(=O)NCCNc4nc(N(C)C)nc(N5CCOCC5)n4)cc3)=Nc3c(N)nc(N)nc3N2)cc(OC)c1OC (centres undefined)
Response: 97.4

Request: Give the reported growth for this compound. O=C(OCCOCCO)N(c1cccc(Br)c1)c1nc(SCCN2CCOCC2)nc2c1cnn2CC(Cl)c1ccc(Br)cc1 (centres undefined)
Response: -0.582

----------
# System: HS 578T breast
# Experiment summary: NCI-60 one-dose screen, 48 h
# Conditions used: 10 µM unless noted
The panel holds about 83,000 compounds, 20% with a hit somewhere; the sample as a whole holds those more often. Active and inactive are the calls of the source. The calls were made as follows: active = growth percent below 10; inactive = the rest.
Please reply with one of these outcomes: active, inactive

Example results:
1. O=C1Nc2ccccc2/C1=C\c1ccc(OCC(=O)c2ccc(Br)cc2)cc1    inactive
2. CC[C@]12C=CCN3CC[C@@]4(c5ccc(OC)cc5N(C)[C@H]4[C@@](O)(C(=O)OC)[C@@H]1OC(=O)CCCC[P+](c1ccc(F)cc1)(c1ccc(F)cc1)c1ccc(F)cc1)[C@@H]32    active
3. Cn1cc(-c2cc(N)n3nc(-c4c[nH]c5ccc(F)cc45)cc3n2)c2cc(Br)cnc21    inactive
4. CN1CCc2c(sc3ncnc(N/N=C/c4cccc(Cl)c4Cl)c23)C1    inactive
5. O=C(N/N=C/c1occc1Br)c1[nH]c2ccc(Br)cc2c1-c1ccccc1    active
6. Cc1ccc(C(=O)Nc2cc(-c3ccncc3)cc(C(F)(F)F)c2)cc1C#Cc1cnc2cccnn12    inactive

// switching to the query molecule
Request: # lookup: test call for S=C(Nc1ccccc1)Nc1ccc(OCc2nc3ccc(Cl)cc3[nH]2)cc1
Response: inactive

----------
# System: T-47D breast
# Experiment summary: NCI-60 one-dose screen, 48 h (100 = growth as untreated, 0 = no growth, -100 = all killed)
# Conditions used: 10 µM unless noted
About 83,000 compounds went through this panel and 20% of them were active in at least one assay; those are over-represented in the sample as a whole.
growth listing for selected compounds.
Entry rule: numbers only, all in %.

Please review the following examples before continuing.
1. FC(F)(F)CN1CCN(CCn2c(C(F)(F)F)cc3c(Cl)ncnc32)CC1    59.3
2. CC1CCc2c(sc3nc(SCC(=O)c4cccc(Br)c4)n(-c4ccccc4)c(=O)c23)C1 (centres undefined)    15.9
3. CCCCC[C@@H]1C/C=C(\C)[C@@H](O)C(C)(C)C(=O)[C@@H](C)/C=C(\C)[C@@H]2C[C@H](O)C[C@](O)(CC(=O)O1)O2    13.5
4. Cc1ccc(C(=O)Nc2cc(-n3ccnc3)cc(C(F)(F)F)c2)cc1-n1cc(-c2cnc3cccnn23)nn1    113
5. NS(=O)(=O)c1ccc(Nc2nc(SCC(=O)c3ccc(F)cc3)nc3ccccc23)cc1    19.5

Request: Give the reported growth for this compound. COc1ccc(-c2nc3ccccc3n2CC(=O)N=Nc2c(O)[nH]c3ccc(Br)cc23)cc1
Response: 90.9

Request: Give the reported growth for this compound. CCCCCCCCc1ccc(C(=O)Nc2ccc(C)cc2C(=O)O)cc1
Response: 94

----------
# Tested on: SF-295 CNS
# Experiment summary: NCI-60 one-dose screen, 48 h (100 = growth as untreated, 0 = no growth, -100 = all killed)
# Conditions used: 10 µM unless noted
The panel holds about 83,000 compounds, 20% with a hit somewhere; the sample as a whole holds those more often.
With a cut-off of 40%, any growth strictly below it is called true; any growth meeting it or above is called false.

Request: Find out if reported growth for O=C(Nc1ccc(-c2ccc3c(c2)NC(=O)/C3=C\c2ccc[nH]2)cc1)Nc1ccc(Cl)c(C(F)(F)F)c1 is less than 40%
Response: true

Request: Find out if reported growth for COc1ccc(N=Nc2c(N)nn3c(-c4ccc(F)cc4)ccnc23)cc1 is less than 40%
Response: false

Request: Find out if reported growth for Cc1ccc(C(=O)Nc2cc(-n3ccnc3)cc(C(F)(F)F)c2)cc1-n1cc(-c2cnc3cccnn23)nn1 is less than 40%
Response: false

Request: Find out if reported growth for C=CC(=O)Nc1ccc(C(=O)/C=C/c2ccc(N(C)C)cc2)c(O)c1 is less than 40%
Response: true

Request: Find out if reported growth for O=C(N/N=C/c1c[nH]c2ccccc12)Nc1ccc(F)c(Cl)c1 is less than 40%
Response: true

Request: Find out if reported growth for COc1cccc2nc(Nc3cccc(NC(=O)c4ccc(CN5CCN(C)CC5)c(C(F)(F)F)c4)c3)ccc12 is less than 40%
Response: true

Request: Find out if reported growth for Nc1cc(-c2c[nH]c3ccc(F)cc23)nc2cc(-c3c[nH]c4ccccc34)nn12 is less than 40%
Response: true

Request: Find out if reported growth for COc1ccc(NC(=O)CSc2nnc(-c3ccc(-c4nc5ccccc5[nH]4)cc3)o2)cc1 is less than 40%
Response: false

Request: Find out if reported growth for CS(=O)(=O)Nc1cncc(-c2ccc3ncnc(NCc4ccccc4)c3c2)c1 is less than 40%
Response: false

Request: Find out if reported growth for Nc1nn2c(-c3cc4cc(Br)ccc4oc3=O)ccnc2c1N=Nc1ccccc1 is less than 40%
Response: true

Request: Find out if reported growth for COc1cc(C2CC(c3ccc(C(F)(F)F)cc3)=Nc3c(N)nc(N)nc3N2)ccc1Oc1nc(Nc2ccc(F)cc2)nc(N(C)C)n1 (stereo not drawn) is less than 40%
Response: true

Request: Find out if reported growth for N#CC1=C(c2ccco2)Nc2c(c(-c3ccccc3)nn2-c2ccccc2)C12C(=O)Nc1ccc(Cl)cc12 (stereo not drawn) is less than 40%
Response: true

Request: Find out if reported growth for COc1cc(C2CC(c3ccc(S(=O)(=O)NCCNc4nc(N(C)C)nc(N5CCOCC5)n4)cc3)=Nc3c(N)nc(N)nc3N2)cc(OC)c1OC (stereo not drawn) is less than 40%
Response: false

Data credit: PubChem BioAssay (NCI)
